- assayed.target: T1, Scribble PDZ2 R896A (human, UniProt Q14160 860-950, R896A)
- T1 sequence (looked up): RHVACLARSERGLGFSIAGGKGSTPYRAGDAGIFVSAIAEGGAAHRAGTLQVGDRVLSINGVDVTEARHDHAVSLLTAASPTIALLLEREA
- test.description: ITC

- binder: "RLQSETSV [Vangl2 C-terminal PBM peptide (RLQSETSV)]"
  unit.text: "µM"
  Kd: 26.7
- binder: "RSWFETWV [superpeptide (synthetic pan-PDZ binding peptide)]"
  unit.text: "µM"
  Kd: 7.8
